Data origin, for the record: patent US20220378931A1

Biological target: T1, human serum albumin (human, UniProt P02768 25-609)
T1 construct: bought protein, amine-coupled to a CM5 chip; also called Human SA; HSA
Assay: SPR (Biacore 8K), albumin immobilised, 25 C, 1:1 kinetics

binder | Kd [nM]
INS Analog 24 (other, single-chain insulin B-L2-A-L1-VHH fusion; also called Ex. 24) FVSQHLCGSHLVEALHLVCGERGFHYTPKTGGGGGGGIVEQCCHSICSLEQLENYCGPGPQPGPQPGPQPGPQPGPQPGPQPGPQPGPQEVQLLESGGGLVQPGGSLRLSCAASGRYIDETAVAWFRQAPGKEREFVAGIGGGVDITYYADSVKGRFTISRDNSKNTLYLQMNSLRPEDTAVYYCAARPGRPLITSKVADLYPYWGQGTLVTVSSPP | 0.91
